# PROCEDURE_DETAILS: qHTS for Inhibitors of TGF-b; further: nearly all actives have a fitted effect of over 65% in size
# DETAILS: HepG2 CAGA-GFP TGF-b/SMAD3 reporter, GFP fluorescence, 18 h, TGF-beta stimulated, 500 pg/mL final; series mostly up to 46.1 µM
About 5,000 (1.2%) of roughly 410,000 compounds were called active. Not shown: some 13% with an inconclusive outcome. The call rests on the fitted dose curve; in most records, active means well fitted inhibition curve with a large enough effect; inconclusive means small, poorly fitted or top-dose-only effect; inactive means no such curve, though single readings can be large or run the other way. Shown is part of a subset that was picked to be rich in actives.
Outcome (select one): y (active), n (inactive)

| COMPOUND | CATEGORY |
| --- | --- |
| N#C/C=C/N1CCN(Cc2ccc3c(c2)OCO3)CC1 | n |
| CN(C)C(CNC(=O)c1ccc(OCc2cn3ccccc3n2)cc1)c1ccco1 (stereo not given) | n |
| CCOc1ccc(C(NC(=O)c2cc(OC)c(OC)c(OC)c2)c2cc(Cl)c3cccnc3c2O)cc1 (stereo not given) | n |
| S=c1[nH]c(=S)c2n[nH]nc2[nH]1 | n |
| CN(C)CCNC(=O)c1ccc(-c2cn3c(-c4ccc(Oc5ccccc5)cc4)cnc3cn2)cc1 | y |

Q. Hi, do you know how COc1ccc(OCC(=O)Nc2cccc(C(=O)OCc3cc(=O)n4nc(C)sc4n3)c2)cc1 came out in this test?
A. n

Q. Hi, do you know how Cc1ccc(NC(=O)C(=O)NCC(c2cccnc2)N2CCOCC2)cc1 (stereo not given) came out in this test?
A. n

---

# PROCEDURE_DETAILS: qHTS for Inhibitors of TGF-b; further: nearly all actives have a fitted effect of over 65% in size
# DETAILS: HepG2 CAGA-GFP TGF-b/SMAD3 reporter, GFP fluorescence, 18 h, TGF-beta stimulated, 500 pg/mL final; series mostly up to 46.1 µM
# Description: TGF-b is a main component in the TGF-b signaling pathway which plays diverse roles in cellular and development pathways. TGF-b is the mediated by the transcription factors Smads. […] We aim to identify Smad3-small molecule antagonists using a quantitative high throughput screening (qHTS) approach. […] Concentration-response curves were fitted to the signals arising from the resulting fluorescence. […]
Hit rate of the full screen: of about 410,000 compounds, about 5,000 (1.2%) were called active. Roughly 13% stayed inconclusive and do not appear here. Calls follow the shape of the dose curve; as a rule, active = well fitted inhibition curve with a large enough effect; inconclusive = small, poorly fitted or top-dose-only effect; inactive = no such curve, though single readings can be large or run the other way. For the sample, actives were picked, then their nearest neighbours and some compounds at random.
Outcome (select one): active, inactive

The following compounds have reported results that may help.
| COMPOUND | CATEGORY |
| --- | --- |
| Cc1cccc([C@@H]2[C@@H]3C(=O)N(Cc4ccccc4)C(=O)[C@@H]3[C@]3(C)C(=O)N(c4ccc(Br)cc4)C(=O)N23)c1 | inactive |
| CC1=C(c2ccc(Cl)cc2)S(=O)(=O)N=C1N1CCN(c2cc(C)ccc2C)CC1 | inactive |
| Fc1ccc(C(Nc2ccc(Cl)c(C(F)(F)F)c2)c2nnc(-c3ccccc3)o2)cc1 (centres undefined) | active |
| COC(=O)c1ccc2nc(C3CCCCC3)c(Cc3cccc(F)c3)n2c1 | inactive |

Q. Hi, do you know how Cc1ccc(Cn2cc(CCC(=O)NCc3ccc(OC(C)C)cc3)c3ccccc32)cc1 came out in this test?
A. inactive

Q. Hi, do you know how Cc1ccc(C)c(N2CCN(C(c3ccccc3)c3nnc(-c4ccccc4)o3)CC2)c1 (centres undefined) came out in this test?
A. inactive

---

# PROCEDURE_DETAILS: qHTS for Inhibitors of TGF-b; further: nearly all actives have a fitted effect of over 65% in size
# DETAILS: HepG2 CAGA-GFP TGF-b/SMAD3 reporter, GFP fluorescence, 18 h, TGF-beta stimulated, 500 pg/mL final; series mostly up to 46.1 µM
# Text: TGF-b is a main component in the TGF-b signaling pathway which plays diverse roles in cellular and development pathways. TGF-b is the mediated by the transcription factors Smads. […] We aim to identify Smad3-small molecule antagonists using a quantitative high throughput screening (qHTS) approach. […] Concentration-response curves were fitted to the signals arising from the resulting fluorescence. […]
In all, about 410,000 compounds went through this assay and about 5,000 (1.2%) were called active. About 13% were inconclusive and are not listed. Calls follow the shape of the dose curve; as a rule, active = well fitted inhibition curve with a large enough effect; inconclusive = small, poorly fitted or top-dose-only effect; inactive = no such curve, though single readings can be large or run the other way. Only a selection was taken, and actives are over-represented in it overall.
Outcome (select one): TRUE for active, FALSE for inactive

| MOLECULE | CATEGORY |
| --- | --- |
| Cn1c(=O)c2sccc2n2c(CCC(=O)NCc3ccccc3Cl)nnc12 | FALSE |

Q. Hi, do you know how Cn1nc(-c2ccccc2)c(-c2ccccc2)c(C(=O)Nc2ccc(S(N)(=O)=O)cc2)c1=O came out in this test?
A. FALSE
